remaining at 1 h, 1 µM values for the molecules below.
assay: Metabolic stability in rat liver microsome assessed as parent compound remaining at 1 uM measured after 1 hr in presence of NADPH regenerating system by UPLC-MS/MS analysis; assay type: ADME; settings: liver microsomes, read-out: Stability
Give just the numeric value; % need not be written.

# count of solved cases: 3
CCc1ncc(-c2cc(C)no2)c(C2CCN(CC(=O)N3CCCCC3)CC2)n1	101
CCc1ncc(-c2cccc(C)n2)c(C2CCN(CC(=O)N3CCOCC3)CC2)n1	96
CCc1ncc(-c2cc(C)no2)c(C2CCN(CC(=O)N3CCOCC3)CC2)n1	95

# input for lookup
Asked: Look up remaining at 1 h, 1 µM for this molecule: Cc1cc(-c2cnc(C3CC3)nc2C2CCN(CC(=O)N3CCOCC3)CC2)on1
Given back: 84

====

biological target: Sigma non-opioid intracellular receptor 1 (Homo sapiens); experiment: Binding affinity to sigma1 receptor (unknown origin) assessed as inhibition constant
readout-type: Ki (µM)
Give just the numeric value; µM need not be written.

OCCCN1CCCC2CC1c1cc(-c3ccc(C(F)(F)F)cc3)ccc12 (stereo not drawn)	1.28

# input for lookup
Asked: Look up Ki for this compound: COc1cc2c(cc1OC)CN(CCCCn1c(=O)n(C)c3ccccc31)CC2
Given back: 0.56

====

Ki values for the compounds below.
target: Sigma intracellular receptor 2 (Homo sapiens, UniProt Q5BJF2); experiment: Binding affinity to sigma2 receptor (unknown origin) assessed as inhibition constant
Sequence (Q5BJF2 whole entry): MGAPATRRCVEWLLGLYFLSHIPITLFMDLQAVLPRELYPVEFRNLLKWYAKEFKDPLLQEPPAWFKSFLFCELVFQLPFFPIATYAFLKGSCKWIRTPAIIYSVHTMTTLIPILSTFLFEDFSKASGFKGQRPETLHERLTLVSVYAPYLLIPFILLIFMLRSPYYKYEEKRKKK
Give the number first and the unit second.

OCCCN1CCCC2CC1c1cc(-c3ccc(C(F)(F)F)cc3)ccc12 (stereo not drawn)	46 nM
CC(C)(C)Oc1cc(CCC(C)(C)N2Cc3ccc(S(C)(=O)=O)cc3C2)ccc1O	8 nM

# input for lookup
Asked: Look up Ki for this compound: COc1cc2c(cc1OC)CN(CCCCn1c(=O)n(C)c3ccccc31)CC2
Given back: 0.43 nM

====

assay: Half life in Wistar rat at 1 mg/kg, iv by UPLC-MS/MS analysis; format: ADME, organism-based; settings: in vivo
readout-type: half-life (min)
Give just the numeric value; min need not be written.

Asked: Look up half-life for this molecule: CCc1ncc(-c2cc(C)no2)c(C2CCN(CC(=O)N3CCOCC3)CC2)n1
Given back: 60

====

target: Sigma intracellular receptor 2 (Homo sapiens); test: Displacement of [3H]-1,3-di-O-tolylguanidine from human sigma 2 receptor/TMEM97 transfected in sigma 1 receptor knockout HEK293 cell membranes assessed as inhibition constant measured after 120 mins by microbeta scintillation counting analysis; parameters: species or system Cell membrane
readout-type: Ki (nM)
Give just the numeric value; nM need not be written.

CCc1ncc(-c2ccncc2)c(C2CCN(CC(=O)N3CCOCC3)CC2)n1	727

Asked: Look up Ki for this molecule: CCc1ncc(-c2cc(C)no2)c([C@@H]2CCCN(CC(=O)N3CCOCC3)C2)n1
Given back: 164

Asked: Look up Ki for this molecule: CCCc1ncc(-c2cc(C)no2)c(C2CCN(CC(=O)N3CCOCC3)CC2)n1
Given back: 61

Asked: Look up Ki for this molecule: CCc1ncc(-c2ccccn2)c(C2CCN(CC(=O)N3CCOCC3)CC2)n1
Given back: 319

Asked: Look up Ki for this molecule: CCc1ncc(-c2cc(C)no2)c(C2CCN(CC(=O)N3CCOCC3)CC2)n1
Given back: 13

Asked: Look up Ki for this molecule: Cc1cc(-c2cnc(C(F)(F)F)nc2C2CCN(CC(=O)N3CCOCC3)CC2)on1
Given back: 6

Asked: Look up Ki for this molecule: CCc1ncc(-c2cc(C)no2)c(C2CCN(CCC(=O)N3CCOCC3)CC2)n1
Given back: 62

Asked: Look up Ki for this molecule: CC(C)(C)Oc1cc(CCC(C)(C)N2Cc3ccc(S(C)(=O)=O)cc3C2)ccc1O
Given back: 5

====

target: Sigma non-opioid intracellular receptor 1 (Homo sapiens, UniProt Q99720); test: Displacement of [3H]-(+)-pentazocine from human sigma1 receptor transfected in HEK293 cell membranes assessed as inhibition constant incubated for 120 mins in presence of haloperidol by microbeta scintillation counter analysis; set-up: species or system Cell membrane
Sequence (Q99720 whole entry): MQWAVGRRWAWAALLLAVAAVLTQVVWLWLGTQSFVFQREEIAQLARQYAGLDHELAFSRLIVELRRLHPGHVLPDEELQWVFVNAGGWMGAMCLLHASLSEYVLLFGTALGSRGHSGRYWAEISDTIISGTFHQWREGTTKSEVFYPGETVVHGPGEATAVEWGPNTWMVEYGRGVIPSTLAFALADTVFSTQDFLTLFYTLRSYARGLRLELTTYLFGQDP
readout-type: Ki

CCn1ncc(-c2cc(C)no2)c1C1CCN(CC(=O)N2CCOCC2)CC1	> 1 µM
Cc1cc(-c2cnc(C(C)C)nc2C2CCN(CC(=O)N3CCOCC3)CC2)on1	> 1 µM
CC(C)(C)Oc1cc(CCC(C)(C)N2Cc3ccc(S(C)(=O)=O)cc3C2)ccc1O	0.023 µM

# input for lookup
Asked: Look up Ki for this compound: CCc1ncc(-c2cc(C)no2)c([C@@H]2CCCN(CC(=O)N3CCOCC3)C2)n1
Given back: > 10 µM

====

assay: Metabolic stability in human liver microsome assessed as intrinsic clearance incubated upto 60 mins in presence of NADPH regenerating system by UPLC-MS/MS analysis; type: ADME; conditions: liver microsomes, read-out: CLH
readout-type: microsomal CLint (µL/min/mg)
Give just the numeric value; µL/min/mg need not be written.

Asked: Look up microsomal CLint for this molecule: CCc1ncc(-c2cc(C)no2)c(C2CCN(CC(=O)N3CCOCC3)CC2)n1
Given back: 1.6

====

assay: Cmax in Wistar rat at 1 mg/kg, iv by UPLC-MS/MS analysis; type: ADME, organism-based; set-up: dose 1 mg/kg, route iv; details: in vivo
readout-type: Cmax (ng/mL)
Give just the numeric value; ng/mL need not be written.

Asked: Look up Cmax for this molecule: CCc1ncc(-c2cc(C)no2)c(C2CCN(CC(=O)N3CCOCC3)CC2)n1
Given back: 2020

====

target: Sigma intracellular receptor 2 (Homo sapiens, UniProt Q5BJF2); assay: Displacement of [3H]-1,3-di-O-tolylguanidine from human sigma 2 receptor/TMEM97 transfected in sigma 1 receptor knockout HEK293 cell membranes assessed as inhibition constant measured after 120 mins by microbeta scintillation counting analysis; design: species or system Cell membrane
log10 of Ki values for the compounds below.
Transform log10 | Measure Ki | Unit nM

# count of solved cases: 5
CCc1ncc(-c2cc(C)no2)c(C2CCN(CC(=O)N3CCCCC3)CC2)n1	0.60
CCc1ncc(-c2cc(C)no2)c([C@H]2CCCN(CC(=O)N3CCOCC3)C2)n1	2.90
Cc1cc(-c2cncnc2C2CCN(CC(=O)N3CCOCC3)CC2)on1	2.66
CCc1ncc(-c2cc(C)no2)c(C2CCN(CC(=O)N3CCCOCC3)CC2)n1	0.70
Cc1cc(-c2cnc(C3CC3)nc2C2CCN(CC(=O)N3CCOCC3)CC2)on1	0.00

Asked: Look up log10 of Ki for this compound: Cc1cc(-c2cnc(C)nc2C2CCN(CC(=O)N3CCOCC3)CC2)on1
Given back: 1.77

Asked: Look up log10 of Ki for this compound: CCc1ncc(-c2cc(C)no2)c(C2CCCN(CC(=O)N3CCOCC3)CC2)n1 (stereo not given)
Given back: 2.12

Asked: Look up log10 of Ki for this compound: CCc1ncc(-c2nccn2C)c(C2CCN(CC(=O)N3CCOCC3)CC2)n1
Given back: 2.98

Asked: Look up log10 of Ki for this compound: CCc1ncc(-c2cccc(C)n2)c(C2CCN(CC(=O)N3CCOCC3)CC2)n1
Given back: 2.06

====

test: Metabolic stability in rat liver microsome assessed as intrinsic clearance incubated upto 60 mins in presence of NADPH regenerating system by UPLC-MS/MS analysis; format: ADME; conditions: liver microsomes, read-out: CLH
readout-type: microsomal CLint (µL/min/mg)
Give just the numeric value; µL/min/mg need not be written.

Asked: Look up microsomal CLint for this compound: CCc1ncc(-c2cc(C)no2)c(C2CCN(CC(=O)N3CCOCC3)CC2)n1
Given back: 1.5

====

experiment: Tmax in Wistar rat at 10 mg/kg, po by UPLC-MS/MS analysis; format: ADME, organism-based; settings: in vivo
readout-type: Tmax (min)
Give just the numeric value; min need not be written.

Asked: Look up Tmax for this compound: CCc1ncc(-c2cc(C)no2)c(C2CCN(CC(=O)N3CCOCC3)CC2)n1
Given back: 48

====

biological target: Sigma intracellular receptor 2 (Homo sapiens, UniProt Q5BJF2); test: Displacement of [3H]-1,3-di-O-tolylguanidine from human sigma 2 receptor/TMEM97 transfected in sigma 1 receptor knockout HEK293 cell membranes assessed as inhibition constant measured after 120 mins by microbeta scintillation counting analysis; design: species or system Cell membrane
Ki values for the molecules below.
Give the number first and the unit second.

# count of solved cases: 4
CCc1ncc(-c2cc(C)no2)c(C2CCN(CCN3CCOCC3)CC2)n1	38 nM
CCc1ncc(-c2cc(C)no2)c(C2CCN(CC(=O)N3CCCN(C)CC3)CC2)n1	98 nM
CCc1ncc(-c2cc(C)no2)c(C2CCN(CC(=O)N3CCC4(CCOC4)CC3)CC2)n1	1 nM
CCn1cc(-c2cc(C)no2)c(C2CCN(CC(=O)N3CCOCC3)CC2)n1	496 nM

# input for lookup
Asked: Look up Ki for this molecule: Cc1cc(-c2cnc(C(C)C)nc2C2CCN(CC(=O)N3CCOCC3)CC2)on1
Given back: 47 nM
